Assay: Phase 1 study: single- and multiple-dose plasma pharmacokinetics
Format: in vivo, human (Japanese patients)
Settings: human; plasma, multiple dose 1 mg QD oral, N = 6; AUCtau = AUC24; geometric mean (geometric %CV)
endpoint_label: AUC (ng·h/mL)

smiles_text	endpoint_label	number
Cn1ncnc1[C@H]1c2n[nH]c(=O)c3cc(F)cc(c23)N[C@@H]1c1ccc(F)cc1	AUC	245

---

Test: Phase 1 study: single- and multiple-dose plasma pharmacokinetics
Type: in vivo, human (Japanese patients)
Settings: human; plasma, single dose 1 mg oral, N = 6; geometric mean (geometric %CV)
endpoint_label: AUC(0-inf) (µg·h/mL)

smiles_text	endpoint_label	number
Cn1ncnc1[C@H]1c2n[nH]c(=O)c3cc(F)cc(c23)N[C@@H]1c1ccc(F)cc1	AUC(0-inf)	0.2
